Values were extracted from patent US20110008433A1.

# assay_explanation: Free radical scavenger, SOD mimetic activity (xanthine/xanthine oxidase, NBT)
# Type: biochemical
# measurement_conditions: read-out: Concentration giving 50 % inhibition (SOD mimetic assay)
pIC50: −log10 of the molar value.
assay_metric: pIC50

• O=C(O[C@@H]1Cc2c(O)cc(O)cc2O[C@@H]1c1ccc(O)c(O)c1)c1cc(O)c(O)c(O)c1 [(−)-Epicatechin gallate] = 5.21
